test system: MES-SA/Dx5; assay: Cytotoxicity against multidrug resistance human MES-SA/Dx5 cells assessed as cell growth inhibition incubated for 144 hrs in presence of P-gp inhibitor Tariquidar by fluorescence microplate reader assay; type: functional, cell-based; settings: MES-SA/Dx5, 144 h
pIC50: −log10 of the molar value.
Decide by pIC50: equal to or exceeding 5 means 1, less means 0.

{"mol-smiles": "CC[C@H]1CN2CC[C@H]1C[C@H]2[C@@H](Nc1c(Nc2cc(C(F)(F)F)cc(C(F)(F)F)c2)c(=O)c1=O)c1ccnc2ccc(OC)cc12", "assigned-class": 1}
{"mol-smiles": "C#C[C@H]1CN2CC[C@H]1C[C@H]2[C@@H](Nc1c(Nc2cc(C(F)(F)F)cc(C(F)(F)F)c2)c(=O)c1=O)c1ccnc2ccc(OC)cc12", "assigned-class": 1}
{"mol-smiles": "C=C[C@H]1CN2CC[C@H]1C[C@H]2[C@H](O)c1ccnc2ccc(OC)cc12", "assigned-class": 0}
{"mol-smiles": "C#C[C@H]1CN2CC[C@H]1C[C@H]2[C@@H](N)c1ccnc2ccc(OC)cc12", "assigned-class": 0}
{"mol-smiles": "CC[C@H]1CN2CC[C@H]1C[C@H]2[C@@H](Nc1c(NCc2ccccc2)c(=O)c1=O)c1ccnc2ccc(OC)cc12", "assigned-class": 1}
{"mol-smiles": "C=C[C@H]1CN2CC[C@H]1C[C@H]2[C@@H](N)c1ccnc2ccc(OC)cc12", "assigned-class": 0}
{"mol-smiles": "C#C[C@H]1CN2CC[C@H]1C[C@H]2[C@H](O)c1ccnc2ccc(OC)cc12", "assigned-class": 0}
{"mol-smiles": "C=C[C@H]1CN2CC[C@H]1C[C@H]2[C@@H](Nc1c(Nc2cc(C(F)(F)F)cc(C(F)(F)F)c2)c(=O)c1=O)c1ccnc2ccc(OC)cc12", "assigned-class": 1}
{"mol-smiles": "CC[C@H]1CN2CC[C@H]1C[C@H]2[C@@H](NC(=S)Nc1cc(C(F)(F)F)cc(C(F)(F)F)c1)c1ccnc2ccc(OC)cc12", "assigned-class": 1}
{"mol-smiles": "CC[C@H]1CN2CC[C@H]1C[C@H]2[C@@H](Nc1c(NCc2ccccc2)c(=S)c1=S)c1ccnc2ccc(OC)cc12", "assigned-class": 0}
{"mol-smiles": "CC[C@H]1CN2CC[C@H]1C[C@H]2[C@@H](N)c1ccnc2ccc(OC)cc12", "assigned-class": 0}
